experimental system: Rho-associated protein kinase 1 (Homo sapiens)
Sequence (Q13464 whole entry, the tested form may be a part): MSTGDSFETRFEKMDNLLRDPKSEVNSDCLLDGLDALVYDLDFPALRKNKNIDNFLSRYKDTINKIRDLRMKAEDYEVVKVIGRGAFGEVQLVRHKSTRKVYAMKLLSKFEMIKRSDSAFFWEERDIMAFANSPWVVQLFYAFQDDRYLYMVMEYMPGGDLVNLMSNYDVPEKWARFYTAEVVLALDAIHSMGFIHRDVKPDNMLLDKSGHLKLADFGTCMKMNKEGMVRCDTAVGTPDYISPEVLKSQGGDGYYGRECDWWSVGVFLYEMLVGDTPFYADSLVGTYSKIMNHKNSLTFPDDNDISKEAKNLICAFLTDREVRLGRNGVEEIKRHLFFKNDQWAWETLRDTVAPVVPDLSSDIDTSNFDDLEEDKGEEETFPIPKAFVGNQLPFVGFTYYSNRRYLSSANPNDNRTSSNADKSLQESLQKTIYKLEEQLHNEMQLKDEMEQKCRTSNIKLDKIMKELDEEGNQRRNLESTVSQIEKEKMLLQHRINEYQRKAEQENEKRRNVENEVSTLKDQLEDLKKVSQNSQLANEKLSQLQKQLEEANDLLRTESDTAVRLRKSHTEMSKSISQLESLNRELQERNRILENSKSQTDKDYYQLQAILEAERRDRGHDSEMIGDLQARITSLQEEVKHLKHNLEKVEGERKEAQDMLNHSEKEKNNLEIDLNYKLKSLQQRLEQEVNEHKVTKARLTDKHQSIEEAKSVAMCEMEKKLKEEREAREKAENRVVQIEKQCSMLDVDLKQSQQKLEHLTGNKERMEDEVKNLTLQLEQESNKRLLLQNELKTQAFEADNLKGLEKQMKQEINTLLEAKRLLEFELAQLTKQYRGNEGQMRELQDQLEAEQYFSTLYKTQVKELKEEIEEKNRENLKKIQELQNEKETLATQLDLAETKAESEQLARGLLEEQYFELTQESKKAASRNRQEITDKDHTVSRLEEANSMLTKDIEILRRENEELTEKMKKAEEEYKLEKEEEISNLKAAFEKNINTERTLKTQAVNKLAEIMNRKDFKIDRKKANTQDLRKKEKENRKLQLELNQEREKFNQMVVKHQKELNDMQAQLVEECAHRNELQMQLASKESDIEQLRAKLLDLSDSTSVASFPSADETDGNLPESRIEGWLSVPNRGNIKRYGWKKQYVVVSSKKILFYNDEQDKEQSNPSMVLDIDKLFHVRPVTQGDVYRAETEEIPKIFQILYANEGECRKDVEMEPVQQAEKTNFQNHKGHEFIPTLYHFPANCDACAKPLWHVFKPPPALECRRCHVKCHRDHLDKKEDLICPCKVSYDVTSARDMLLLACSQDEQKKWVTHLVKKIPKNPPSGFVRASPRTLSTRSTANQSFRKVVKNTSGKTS
measurement description: Inhibition of recombinant human ROCK1 (17 to 535 residues) using […] as substrate incubated for 40 mins in presence of [gamma-33P]ATP and 10 uM ATP by radiometric scintillation counting analysis
measured metric: IC50 (nM)

// worked examples, IC50 included
O=C(COc1ccc2c(=O)ccoc2c1)Nc1cccc(NC(=O)c2ccc(F)cc2)c1; 129
O=C(COc1ccc2c(=O)ccoc2c1)Nc1cccc(NC(=O)c2ccc(OC(F)(F)F)cc2)c1; 869

[a] CN(C)c1ccc(C(=O)Nc2ccc(NC(=O)COc3ccc4c(=O)ccoc4c3)cc2)cc1
[b] Nc1cccc(C(=O)Nc2cccc(NC(=O)COc3ccc4c(=O)ccoc4c3)c2)c1
[in] Quick check, higher IC50 between a and b ? Indicate which entry you chose by stating its label.
[out] a
(a: 1050 nM, b: 670 nM)

FYI, the data here is from ChEMBL document CHEMBL4376834.
